Target: HIV-1 integrase (Human immunodeficiency virus type 1 group M subtype B, UniProt P04585)
Assay: HIV-1 integrase inhibition assay (radiolabeled duplex substrate corresponding to the U5 end of the HIV LTR)
Format: biochemical
Protocol: For the purpose of Table 1 to 4, the HIV-1 integrase inhibition assay was carried out following a known procedure (Burke, Jr. T. R. et al., J. Med. Chem. 38, 4171-4178 (1995)). A suitable radiolabeled duplex substrate corresponding to the U5 end of the HIV LTR was used. For the purposes of Table 1 to 4 the HIV-1 integrase inhibition assay was based on a known procedure (Hazuda, D. J. et al., Nucleic Acids Res. 22 1121-1122 (1994)).
measured-metric: IC50

Batch request: IC50 for each of the following compounds.
1. O=C(O)CC[C@H](NC(=O)c1cc2ccccc2n1Cc1ccc(F)cc1)C(=O)NCCc1cccs1
2. CC(C)(C)OC(=O)CC[C@H](NC(=O)c1ccc(OCc2ccc(F)cc2)c(OCc2ccc(F)cc2)c1)C(=O)NCc1ccccc1
3. CC(C)(C)OC(=O)N[C@@H](Cc1cn(-c2ccc([N+](=O)[O-])cc2[N+](=O)[O-])cn1)C(=O)NCc1ccc(O)c(O)c1
4. CC(C)(C)OC(=O)CC[C@H](NC(=O)c1cccn1Cc1ccc(F)cc1)C(=O)NCCc1cccs1

> 10 µM
> 10 µM
> 5 µM
> 10 µM
